Target: protein tyrosine phosphatase 1B (PTP1B) (Homo sapiens)
Sequence (P18031 1-435): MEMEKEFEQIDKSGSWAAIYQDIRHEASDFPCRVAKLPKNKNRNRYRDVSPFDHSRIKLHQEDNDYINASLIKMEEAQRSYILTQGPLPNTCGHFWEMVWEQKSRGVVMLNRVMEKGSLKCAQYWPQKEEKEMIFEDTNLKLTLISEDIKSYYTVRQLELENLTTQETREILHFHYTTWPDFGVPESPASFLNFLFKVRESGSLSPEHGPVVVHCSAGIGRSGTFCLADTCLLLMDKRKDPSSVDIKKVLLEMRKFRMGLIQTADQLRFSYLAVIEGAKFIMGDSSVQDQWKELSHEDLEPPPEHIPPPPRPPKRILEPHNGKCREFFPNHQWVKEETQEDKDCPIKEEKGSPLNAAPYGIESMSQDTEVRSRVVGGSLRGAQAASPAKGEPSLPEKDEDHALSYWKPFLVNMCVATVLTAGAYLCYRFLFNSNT
IC50 for assorted compounds
Endpoint Name: IC50

>>> result("COc1ccc(/C=C/C(=O)c2c(O)c(C)c(O)c3c2OC(C)(C)C=C3)cc1")
"48.8 µM"
>>> result("CC(C)=CCC/C(C)=C/Cc1c(O)cc2oc(-c3ccc(O)cc3)c(O)c(=O)c2c1O")
"22.7 µM"
>>> result("CC(C)=CCC/C(C)=C/Cc1c(O)cc2c(c1O)C(=O)[C@H](O)[C@@H](c1ccc(O)cc1)O2")
"15.2 µM"
>>> result("CC1(C)C=Cc2c(O)cc(O)c(C(=O)/C=C/c3ccccc3)c2O1")
"19.3 µM"
>>> result("CC(C)=CCC/C(C)=C/Cc1c(O)cc2c(c1O)C(=O)C[C@@H](c1ccc(O)cc1)O2")
"14 µM"
